# test_description: in vitro
# condition_context: human, hela cells, % viability
test_readout: viability at 28.5 h, 10 µM (%)
State the answer as a number, implicitly in %.

// known answers, use as guide
The compound listed as `Cc1c(-c2ccc(Cl)cc2Cl)nc2ccccc2c1C(=O)NCc1ccc(S(N)(=O)=O)cc1` shows viability at 28.5 h, 10 µM equal to 101

Given item `c1coc(-c2nccnc2NCc2ccncc2)c1` , the value recorded as its viability at 28.5 h, 10 µM is 105

Form field viability at 28.5 h, 10 µM, entry COc1ccc(Br)c(C(=O)Nc2cc(N3CCNCC3)c3occc3c2)c1 [CBK061757C] : 115

Lab note: CN1CC(C(=O)N2CCC(c3cc4ccccc4cn3)CC2)CC1=O (stereo not drawn) gave viability at 28.5 h, 10 µM of 96.8

Lookup result for `C[C@@H](c1ccccc1)n1c(=O)[nH]c2ncc(-c3ccc(N(C)C)cc3)nc21` ; measured viability at 28.5 h, 10 µM: 103

Notebook: Fc1ccccc1C1CCN(c2cncc(N3CCNCC3)n2)CC1 [CBK172236G] , viability at 28.5 h, 10 µM read as 122

Sample `CC(C)Nc1ccc(S(=O)(=O)N(Cc2ccccc2)Cc2ccccc2)cn1` ; viability at 28.5 h, 10 µM observed: 84.6

viability at 28.5 h, 10 µM recorded for this compound, `CCc1nc2ccc(C(=O)N(C)Cc3ccco3)cn2c1N(C)Cc1cccs1` , is 98.5

Others:
Summary for this compound, `Cc1cc(CN2CCN(S(=O)(=O)c3ccc(-c4ccccc4)cc3)CC2)cc(C)c1O` : viability at 28.5 h, 10 µM is 115

src = paper PMC12040169
